Values were extracted from ChEMBL document CHEMBL1140710.

Please respond with reported Activity for every item in the list.
- target.entity: Melanocyte-stimulating hormone receptor (Homo sapiens, UniProt Q01726)
- Sequence (Q01726 whole entry, looked up): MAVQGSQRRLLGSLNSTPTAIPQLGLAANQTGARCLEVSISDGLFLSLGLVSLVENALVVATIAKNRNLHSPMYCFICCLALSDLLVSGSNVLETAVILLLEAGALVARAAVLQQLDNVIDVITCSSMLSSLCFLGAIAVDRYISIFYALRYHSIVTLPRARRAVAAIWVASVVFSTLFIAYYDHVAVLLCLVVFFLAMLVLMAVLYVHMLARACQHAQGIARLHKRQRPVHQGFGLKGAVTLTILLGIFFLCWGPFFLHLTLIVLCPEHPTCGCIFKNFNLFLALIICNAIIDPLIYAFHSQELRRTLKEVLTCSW
- assay.procedure: Agonist activity at human MC1 receptor expressed in HEK293 cells assessed as intracellular cAMP accumulation at 10 uM relative to MT2
- Assay type: functional, cell-based
Give the number; % is assumed, so skip it.

The molecule listed as N=C(N)NCCC[C@@H]1NC(=O)[C@@H](Cc2ccc3ccccc3c2)NC(=O)c2nccnc2C(=O)NCCCC[C@@H](C(N)=O)NC(=O)[C@H](Cc2c[nH]c3ccccc23)NC1=O has a reported Activity of 55

The molecule listed as N=C(N)NCCC[C@@H]1NC(=O)[C@@H](Cc2ccccc2)NC(=O)[C@@H]2CCCN2C(=O)c2ccccc2C(=O)NCCCC[C@@H](C(N)=O)NC(=O)[C@H](Cc2c[nH]c3ccccc23)NC1=O has a reported Activity of 0

The molecule listed as N=C(N)NCCC[C@@H]1NC(=O)[C@@H](Cc2ccccc2)NC(=O)[C@@H]2CCCN2C(=O)/C=C\C(=O)NCCCC[C@@H](C(N)=O)NC(=O)[C@H](Cc2c[nH]c3ccccc23)NC1=O has a reported Activity of 0

The molecule listed as N=C(N)NCCC[C@@H]1NC(=O)[C@@H](Cc2ccc3ccccc3c2)NC(=O)c2cccc(n2)C(=O)NCCCC[C@@H](C(N)=O)NC(=O)[C@H](Cc2c[nH]c3ccccc23)NC1=O has a reported Activity of 0

The molecule listed as N=C(N)NCCC[C@@H]1NC(=O)[C@@H](Cc2ccc3ccccc3c2)NC(=O)[C@@H]2CCCN2C(=O)c2ccccc2C(=O)NCCCC[C@@H](C(N)=O)NC(=O)[C@H](Cc2c[nH]c3ccccc23)NC1=O has a reported Activity of 80

====

- target.entity: Melanocortin receptor 4 (Homo sapiens, UniProt P32245)
- Sequence (P32245 whole entry): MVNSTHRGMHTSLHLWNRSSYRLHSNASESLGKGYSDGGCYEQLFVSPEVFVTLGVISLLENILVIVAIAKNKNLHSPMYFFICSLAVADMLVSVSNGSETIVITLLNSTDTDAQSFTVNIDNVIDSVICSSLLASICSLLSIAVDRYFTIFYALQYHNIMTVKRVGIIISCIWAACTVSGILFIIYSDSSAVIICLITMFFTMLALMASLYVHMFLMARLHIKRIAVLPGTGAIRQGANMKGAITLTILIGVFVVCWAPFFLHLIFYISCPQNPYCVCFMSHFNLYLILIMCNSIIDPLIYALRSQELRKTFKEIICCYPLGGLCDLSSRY
- assay.procedure: biochemical
Please respond with reported IC50 for every item in the list.

The molecule listed as NC(=O)[C@@H]1CCCCNC(=O)CCCC(=O)N2CCC[C@H]2C(=O)N[C@H](Cc2ccccc2)C(=O)N[C@@H](CCCN=C(N)N)C(=O)N[C@@H](Cc2c[nH]c3ccccc23)C(=O)N1 has a reported IC50 of > 1 µM

The molecule listed as N=C(N)NCCC[C@@H]1NC(=O)[C@@H](Cc2ccccc2)NC(=O)c2nccnc2C(=O)NCCCC[C@@H](C(N)=O)NC(=O)[C@H](Cc2c[nH]c3ccccc23)NC1=O has a reported IC50 of > 10 µM

The molecule listed as NC(=O)[C@@H]1CCCCNC(=O)c2nccnc2C(=O)N[C@H](Cc2ccc3ccccc3c2)C(=O)N[C@@H](CCCN=C(N)N)C(=O)N[C@@H](Cc2c[nH]c3ccccc23)C(=O)N1 has a reported IC50 of > 1 µM

====

- target.entity: Melanocortin receptor 3 (Homo sapiens)
- Sequence (P41968 whole entry): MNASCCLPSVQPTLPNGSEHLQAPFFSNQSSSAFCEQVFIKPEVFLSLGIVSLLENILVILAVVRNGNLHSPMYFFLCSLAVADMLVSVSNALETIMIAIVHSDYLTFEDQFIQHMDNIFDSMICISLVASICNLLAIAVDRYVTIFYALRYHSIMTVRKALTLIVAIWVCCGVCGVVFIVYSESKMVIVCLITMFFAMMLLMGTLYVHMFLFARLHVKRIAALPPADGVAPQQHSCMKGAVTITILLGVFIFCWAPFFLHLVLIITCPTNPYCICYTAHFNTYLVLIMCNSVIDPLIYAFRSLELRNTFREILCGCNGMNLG
- assay.procedure: biochemical
Please respond with reported IC50 for every item in the list.

The compound listed as N=C(N)NCCC[C@@H]1NC(=O)[C@@H](Cc2ccccc2)NC(=O)c2cccc(n2)C(=O)NCCCC[C@@H](C(N)=O)NC(=O)[C@H](Cc2c[nH]c3ccccc23)NC1=O has a reported IC50 of > 10 µM

The compound listed as N=C(N)NCCC[C@@H]1NC(=O)[C@@H](Cc2ccccc2)NC(=O)[C@@H]2CCCN2C(=O)/C=C\C(=O)NCCCC[C@@H](C(N)=O)NC(=O)[C@H](Cc2c[nH]c3ccccc23)NC1=O has a reported IC50 of > 1 µM

The compound listed as N=C(N)NCCC[C@@H]1NC(=O)[C@@H](Cc2ccccc2)NC(=O)[C@@H]2CCCN2C(=O)c2ccccc2C(=O)NCCCC[C@@H](C(N)=O)NC(=O)[C@H](Cc2c[nH]c3ccccc23)NC1=O has a reported IC50 of > 1 µM

The compound listed as NC(=O)[C@@H]1CCCCNC(=O)c2cccc(n2)C(=O)N[C@H](Cc2ccc3ccccc3c2)C(=O)N[C@@H](CCCN=C(N)N)C(=O)N[C@@H](Cc2c[nH]c3ccccc23)C(=O)N1 has a reported IC50 of > 1 µM
